Where do these numbers come from? They come from patent US20220378931A1.

# target: T1, human insulin receptor isoform B with C-terminal C9 tag (human, UniProt P06213 28-1382)
# T1 construct: membranes of stably transfected HEK293 cells; also called hIR-B; human IR-B
# test.name: 125I-insulin competition SPA, hIR-B membranes, 0.001% NP-40
pKi: −log10 of the molar value.
Recorded pKi for the following binders

# binder, pKi
measured = [
    ("INS Analog 30 (other, single-chain insulin B-L2-A-L1-VHH fusion; also called Ex. 30) FVSQHLCGSHLVEALRLVCGERGFHYTPKTGGGGGGGIVEQCCHSICSLYQLENYCGPGPQPGPQPGPQPGPQPGPQPGPQPGPQPGPQEVQLLESGGGLVQPGGSLRLSCAASGRYIDETAVAWFRQAPGKEREFVAGIGGGVDITYYADSVKGRFTISRDNSKNTLYLQMNSLRPEDTAVYYCAARPGRPLITSKVADLYPYWGQGTLVTVSSPP", 7.22),
    ("INS Analog 25 (other, single-chain insulin B-L2-A-L1-VHH fusion; also called Ex. 25) FVSQHLCGSHLVEALRLVCGERGFFYTPKTGGGGGGGIVEQCCTSICSLYQLENYCGGGGGQGGGGQGGGGQGGGGQGGGGQEVQLLESGGGLVQPGGSLRLSCAASGRYIDETAVAWFRQAPGKEREFVAGIGGGVDITYYADSVKGRFTISRDNSKNTLYLQMNSLRPEDTAVYYCAARPGRPLITSKVADLYPYWGQGTLVTVSSPP", 6.19),
    ("INS Analog 2 (other, single-chain insulin B-L2-A-L1-VHH fusion; also called Ex. 2) FVDQHLCGSHLVEALYLVCGERGFFYTPKTGGGGGGGIVEQCCTSICSLYQLENYCGPGPAPGPAPGPAPGPAPGPAPGPAPGPAPGPAEVQLLESGGGLVQPGGSLRLSCAASGRTVSSTAVAWFRQAPGKEREFVAGIGGSVDITYYADSVKGRFTISRDNSKNTLYLQMNSLRPEDTAVYYCAVRPGRPLITSRDANLYDYWGQGTLVTVSS", 7.41),
    ("INS Analog 18 (other, single-chain insulin B-L2-A-L1-VHH fusion; L1 is (PGPA)8; also called Ex. 18) FVSQHLCGSHLVEALRLVCGERGFHYTPKTGGGGGGGIVEQCCHSICSLYQLENYCGPGPAPGPAPGPAPGPAPGPAPGPAPGPAPGPAEVQLLESGGGLVQPGGSLRLSCAASGRYIDETAVAWFRQAPGKEREFVAGIGGGVDITYYADSVKGRFTISRDNSKNTLYLQMNSLRPEDTAVYYCAARPGRPLITSKVADLYPYWGQGTLVTVSSPP", 6.87),
]
